Reference source for all entries: patent US7482321B2

# Procedure Text: Pharmacokinetics after single intravenous dose in rats
# Assay Context: Sprague Dawley, rat, plasma, iv, 10 ug/kg, Plasma Concentration, 60 min; Mean of 4 rats (values below LLOQ taken as zero); single i.v. 10 μg/kg
Ends that are not written are not given here.

>  <Substance>
HVEGTFTSDVSSYLEEQAAKEFIAWLIKGGPSSGDPPPS [Compound 2]

>  <Unit Symbol>
ng/mL

>  <level at 1 h>
1.05

$$$$
>  <Substance>
HVEGTFTSDVSSYLEEQAAKEFIAWLVKGRGSSGAPPPS [Compound 3]

>  <Unit Symbol>
ng/mL

>  <level at 1 h>
0.657

$$$$
>  <Substance>
HVEGTFTSDVSSYLEEQAAKEFIAWLIKGGPSSGDPPPS-NH2 [Compound 1]

>  <Unit Symbol>
ng/mL

>  <level at 1 h>
0.554

$$$$
